# Tested on: human monoclonal antibody CRJB
# Assay type: binding
MEASURE NAME: Binding of CRJB to linear peptide (PEPSCAN-ELISA signal)

>  <SEQ STRING>
EESLHNPYPDYRWLR

>  <OBS VALUE>
123

$$$$
>  <SEQ STRING>
LLESSVIPLVHPLAD

>  <OBS VALUE>
117

$$$$
>  <SEQ STRING>
VEDEGCTNLSGFSYM

>  <OBS VALUE>
103

$$$$
>  <SEQ STRING>
QTSNETKWCPPDQLV

>  <OBS VALUE>
120

$$$$
>  <SEQ STRING>
YEESLHNPYPDYRWL

>  <OBS VALUE>
106

$$$$
>  <SEQ STRING>
GFSYMELKVGYILAI

>  <OBS VALUE>
111

$$$$
>  <SEQ STRING>
ECLDALESIMTTKSV

>  <OBS VALUE>
112

$$$$
>  <SEQ STRING>
DALESIMTTKSVSFR

>  <OBS VALUE>
120

$$$$
>  <SEQ STRING>
GVLGLRLMDGTWVAM

>  <OBS VALUE>
148

$$$$
>  <SEQ STRING>
KCSGVAVSSTYCSTN

>  <OBS VALUE>
130

$$$$
>  <SEQ STRING>
ETCGFVDERGLYKSL

>  <OBS VALUE>
120

$$$$
>  <SEQ STRING>
MQSSLLQQHMELLES

>  <OBS VALUE>
113

$$$$
>  <SEQ STRING>
VPGFGKAYTIFNKTL

>  <OBS VALUE>
114

$$$$
>  <SEQ STRING>
GRCHPHVNGVFFNGI

>  <OBS VALUE>
113

$$$$
>  <SEQ STRING>
NVLIPEMQSSLLQQH

>  <OBS VALUE>
120

$$$$
